target: Pantothenate synthetase (Mycobacterium tuberculosis (strain ATCC 25618 / H37Rv)); experiment: Coupled enzyme confirmation of inhibitors against recombinant Mtb PanC (AID 375); conditions: coupled enzyme assay; at 10 µM, active compounds read high
Lab note: compare inhibition against 1%. Equal or greater, write Satisfied. Smaller, write Not satisfied.

In [3]: df
Out[3]:
                                   compound                     target_or_test_system    group_label
0  Oc1ccccc1C1=Nc2nc3ccccc3n2C(c2ccccc2)C1 (configuration not stated)  Pantothenate synthetase (Mycobacterium tuberculosis (strain ATCC 25618 / H37Rv))  Not satisfied
1     CCC(=O)N/C(N)=N/c1nc(C)c2cc(OC)ccc2n1  Pantothenate synthetase (Mycobacterium tuberculosis (strain ATCC 25618 / H37Rv))  Not satisfied
2  O=C(NCc1cccnc1)C1CCCN(S(=O)(=O)c2ccc(Cl)cc2)C1 (configuration not stated)  Pantothenate synthetase (Mycobacterium tuberculosis (strain ATCC 25618 / H37Rv))      Satisfied
3  Cn1c(=O)c2c(nc(NCCNC(=O)c3ccco3)n2Cc2ccccc2Cl)n(C)c1=O  Pantothenate synthetase (Mycobacterium tuberculosis (strain ATCC 25618 / H37Rv))  Not satisfied

Check the entry C=CCn1c(C)cc(C(=O)CSc2nc3ccccc3c(=O)[nH]2)c1C : does inhibition equal or exceed 1%?
Not satisfied

Check the entry O=S(=O)(c1cccs1)N1CCN(C/C=C/c2ccccc2)CC1 : does inhibition equal or exceed 1%?
Not satisfied

Check the entry CCOc1cc(S(=O)(=O)NCc2ccccn2)c(C)cc1C : does inhibition equal or exceed 1%?
Not satisfied

Check the entry CCN1CCN(C(=O)c2ccc3c(=O)n(C4CCCC4)c(=S)[nH]c3c2)CC1 : does inhibition equal or exceed 1%?
Not satisfied

Check the entry CC(C)(C)C1CCc2[nH]nc(C(=O)O)c2C1 (configuration not stated) : does inhibition equal or exceed 1%?
Satisfied

Check the entry O=C(NCC(=O)N(CCc1ccccc1)C(C(=O)NC1CCCC1)c1cccnc1)c1ccco1 (configuration not stated) : does inhibition equal or exceed 1%?
Satisfied

Check the entry CC1(C)COCN1S(=O)(=O)c1ccc(C(=O)Nc2nnc(-c3ccc(Cl)s3)o2)cc1 : does inhibition equal or exceed 1%?
Satisfied

Check the entry Cn1cnc(S(=O)(=O)NCc2cccs2)c1 : does inhibition equal or exceed 1%?
Not satisfied

Check the entry c1ccc(-c2nc3cnccn3c2Nc2ccc3c(c2)OCCO3)cc1 : does inhibition equal or exceed 1%?
Not satisfied

Check the entry O=C(N1CCN(c2ccccc2F)CC1)C12CC3CC(CC(C3)C1)C2 : does inhibition equal or exceed 1%?
Not satisfied
